- Tested on: Vaccinia virus
- EXPERIMENTAL DETAILS: Antiviral activity against Vaccinia virus IHD infected in African green monkey BGM cells after 6 days by plaque reduction assay
- Format: functional
- CONDITION SET: Orthopoxvirus vaccinia, 144 h, read-out: ED50 (the source's name)
pEC50: −log10 of the molar value.
MEASURE: pEC50

# MOLECULE, MEASURE, LIMIT QUALIFIER, RECORDED MEASUREMENT
data = [
    ("C=CCCCCCCCCC(=O)OC[C@H]1O[C@@H]2[C@@H](Oc3nc(=N)ccn32)[C@@H]1OC(=O)CCCCCCCCC=C.Cl", "pEC50", "=", 6.36),
    ("CC(=O)O[C@H]1[C@@H]2Oc3nc(=N)ccn3[C@@H]2O[C@@H]1COC(=O)C12C=CC(C)(CC1)CC2.Cl", "pEC50", "=", 6.40),
    ("CCCCCCCCCCCCCC(=O)OC[C@H]1O[C@@H]2[C@@H](Oc3nc(=N)ccn32)[C@@H]1OC(=O)CCCCCCCCCCCCC.Cl", "pEC50", "=", 5.76),
    ("CC(=O)OC[C@H]1O[C@@H]2[C@@H](Oc3nc(=N)ccn32)[C@@H]1OC(C)=O.Cl", "pEC50", "=", 6.16),
    ("CCCCCCCC/C=C/CCCCCCCC(=O)OC[C@H]1O[C@@H]2[C@@H](Oc3nc(=N)ccn32)[C@@H]1OC(=O)CCCCCCC/C=C/CCCCCCCC.Cl", "pEC50", "=", 5.33),
    ("CC(=O)O[C@H]1[C@@H]2Oc3nc(=N)ccn3[C@@H]2O[C@@H]1COC(=O)C(C)(C)C.Cl", "pEC50", "=", 6.11),
    ("C/C=C/C=C/C(=O)OC[C@H]1O[C@@H]2[C@@H](Oc3nc(=N)ccn32)[C@@H]1OC(=O)/C=C/C=C/C.Cl", "pEC50", "=", 5.24),
    ("CCCCCC(=O)OC[C@H]1O[C@@H]2[C@@H](Oc3nc(=N)ccn32)[C@@H]1OC(=O)CCCCC.Cl", "pEC50", "=", 6.57),
    ("Cl.N=c1ccn2c(n1)O[C@H]1[C@H](O)[C@@H](CO)O[C@H]12 [ANCITABINE HYDROCHLORIDE]", "pEC50", "=", 6.39),
    ("CCCCCCCC/C=C\\CCCCCCCCCCCC(=O)OC[C@H]1O[C@@H]2[C@@H](Oc3nc(=N)ccn32)[C@@H]1OC(=O)CCCCCCCCCCC/C=C\\CCCCCCCC.Cl", "pEC50", "<", 4.52),
    ("CCCCCCCCCCC(=O)OC[C@H]1O[C@@H]2[C@@H](Oc3nc(=N)ccn32)[C@@H]1OC(=O)CCCCCCCCCC.Cl", "pEC50", "=", 6.39),
    ("CCCCCCCCCCCCCCCCCCCCCC(=O)OC[C@H]1O[C@@H]2[C@@H](Oc3nc(=N)ccn32)[C@@H]1OC(=O)CCCCCCCCCCCCCCCCCCCCC.Cl", "pEC50", "<", 4.52),
    ("CCCC(=O)OC[C@H]1O[C@@H]2[C@@H](Oc3nc(=N)ccn32)[C@@H]1OC(=O)CCC.Cl", "pEC50", "=", 5.81),
    ("CCCCCCCCCC(=O)OC[C@H]1O[C@@H]2[C@@H](Oc3nc(=N)ccn32)[C@@H]1OC(=O)CCCCCCCCC.Cl", "pEC50", "=", 6.49),
    ("CCCCCCCC/C=C\\CCCCCCCC(=O)OC[C@H]1O[C@@H]2[C@@H](Oc3nc(=N)ccn32)[C@@H]1OC(=O)CCCCCCC/C=C\\CCCCCCCC.Cl", "pEC50", "=", 5.49),
]
